Collected composite z-score values appear next to each entry.
assay: probe aNog binding to arrayed compounds – biochemical, biotinylated probe, 635/667 nm fluorescence, primary screen (AID 1115); conditions: small-molecule microarray, higher = more signal;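 further: probe is biotinylated aNog protein used at 0.15 µg/mL for 1 h at 4 C; z-score combines 667 nm fluorescence of each spot with its signal to noise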
Field format: numeric only.

Item: `COc1ccc(C#Cc2ccc3c(c2)[C@]2(C(=O)N3)[C@H](c3ccc(O)cc3)N3[C@H](c4ccccc4)[C@H](c4ccccc4)OC(=O)[C@H]3[C@@H]2C(=O)Nc2nc3ccccc3s2)cc1` | composite z-score: 0.352

Value of measured composite z-score for the entry `C=CCNC(=O)[C@H]1[C@@H]2C(=O)O[C@@H](c3ccccc3)[C@@H](c3ccccc3)N2[C@@H](c2ccccc2OCCO)[C@]12C(=O)N(C(=O)OCCOC)c1ccc(C#CC3(O)CCCCCC3)cc12` : -0.168

get_value(item= `CCOC(=O)C=Cc1cccc(C)c1O` , readout=composite z-score) returns -0.288

GET /value?item= `C=CC[C@@H](OC(=O)Nc1ccc(OC)cc1)c1ccc(O)c(F)c1` &field=composite z-score returns -0.0602

Looking up `COc1ccc([Si](C)(C)[C@@H]2[C@@H](CCO)O[C@]3(C(=O)N(Cc4ccccc4)c4ccc(N5C(=O)c6cccc7cccc5c67)cc43)[C@H]2C)cc1` , I found its composite z-score recorded as 0.2

Input `COCCOC(=O)N1C(=O)[C@@]2(c3cc(C#CC4=CCCCC4)ccc31)[C@H](c1ccccc1OCCO)N1[C@H](c3ccccc3)[C@H](c3ccccc3)OC(=O)[C@H]1[C@@H]2C(=O)N1CCN(c2ncccn2)CC1` . Output composite z-score: -0.404

* * *

test: probe aXIP binding to arrayed compounds – biochemical, NeuroSMM set, 635/667 nm fluorescence, primary screen (AID 1119); conditions: small-molecule microarray, higher = more signal, called active from +8 up or from −8 down;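 further: probe is the protein aXip251-270 applied at 1 µg/mL to compound-printed slides; binding of probe to printed compounds measured as 667 nm fluorescence plus signal to noise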
metric-name: composite Z-score
Write the number on its own, no unit after it.

Below, each entry is followed by its recorded composite Z-score result.
composite Z-score for `COc1ccc(CCNC(=O)[C@@]2(Cc3ccccc3I)c3ccccc3C(=O)N(C3CCCCC3)[C@H]2c2ccc(CO)cc2)cc1` is -0.0065

Documented composite Z-score of `[N-]=[N+]=Nc1ccccc1C[C@]1(C(=O)NCCN2CCOCC2)COC(c2ccc(OCCCO)cc2)=N1` : -0.34

Record summary for `COc1cccc(C)c1NC(=O)O[C@H]1[C@H](OC(=O)Nc2ccccc2-c2ccccc2)[C@H](OC(=O)Nc2ccccc2-c2ccccc2)[C@@H](OC)O[C@@H]1CO` : reported composite Z-score = 0.497

Read the next record carefully.
Memo: `CN(C)C(=O)[C@@]1(Cc2ccccc2CN=[N+]=[N-])N=C(c2ccc(OCCCO)cc2)O[C@H]1c1ccccc1N=[N+]=[N-]` , reported composite Z-score: 0.91

* * *

target: Calmodulin-1 (Homo sapiens) (UniProt P0DP23); assay: small molecules binding calmodulin-1 with EGTA – biochemical, small-molecule microarray, Cy5-labelled CALM1, profiling panel (AID 1111); settings: Cy5-CALM1 binding fluorescence, higher = more signal;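 further: labelled calmodulin applied in Tris saline Tween buffer holding calcium plus EGTA and DTT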
Response key: true means composite z-score >= 0.01; false means composite z-score < 0.01.

Answer whether composite z-score of `O=C1N(CCS(=O)(=O)c2ccccc2)c2ccccc2[C@H]2OC(c3ccc(OCCCO)cc3)=N[C@@]12Cc1ccccc1` is greater than or equal to 0.01. true

Hello, I need to know if `COc1ccc([Si](C)(C)[C@@H]2[C@@H](CCO)O[C@]3(C(=O)N(Cc4ccccc4)c4ccc(N5C(=O)c6cccc7cccc5c67)cc43)[C@H]2C)cc1` has measured composite z-score not below 0.01. Thanks! true

Identify whether the reported composite z-score of the following compound is 0.01 or greater: `O=c1cccc(-c2ccc([N+](=O)[O-])cc2)o1` false

Assess whether reported composite z-score for `COc1ccc([Si](C)(C)[C@H]2[C@H](CC(=O)N3Cc4ccccc4C[C@H]3CO)O[C@@]3(C(=O)N(Cc4ccc(N5CCOC5=O)cc4)c4ccccc43)[C@@H]2C)cc1` sits at 0.01 or higher. false

State whether the measured composite z-score reaches 0.01, counting equality as reaching it, for CC1CC/C=C\[C@H]2OC34C=CCN(c5ccc(Cl)cc5)C(=O)[C@H]3N(C(C)CO)C(=O)[C@]4(C)C2C(=O)O1 (stereo not given in full) true

Form field: composite z-score at least 0.01? Entry: `Cc1ccc(S[C@]2(C(=O)O)CC(=O)N(C3CCCCC3)[C@@H]2c2ccc(CO)cc2I)cc1` true

Others:
Does composite z-score meet or surpass 0.01 for `COc1ccc([Si](C)(C)[C@@H]2[C@@H](CC(=O)N3Cc4ccccc4C[C@H]3CO)O[C@]3(C(=O)N(Cc4ccc(N5C(=O)c6cccc7cccc5c67)cc4)c4ccccc43)[C@H]2C)cc1` ? true

Identify whether the reported composite z-score of the following compound is 0.01 or greater: `Cc1ccc(S[C@]2(C(=O)NC(C)C)CC(=O)N(Cc3cc(C(F)(F)F)cc(C(F)(F)F)c3)[C@@H]2c2ccc(CO)cc2)cc1` false

Decide: composite z-score of `[N-]=[N+]=Nc1ccccc1C[C@]1(C(=O)N2CCOCC2)COC(c2ccc(OCCCO)cc2)=N1` >= 0.01? true

Origin of measurements: PubChem BioAssay
